# Tested on: Plasmodium berghei
# experiment: Screen against P. berghei liver stage (PbLuc), transformed with Luciferase, at 2uM
# Type: functional, HepG2
# condition_context: tested at 2 uM
The campaign covered roughly 68,000 compounds. About 2,700 (4%) showed an effect of 50% or more. Shown is part of a subset that was picked to be rich in strong results.

compound: CCCc1cc(N(CCOC)CC(F)F)n2ncnc2n1
INHIBITION / %: 55.18
//
compound: COc1ccc(F)cc1C(=O)N1CCCC(CNS(C)(=O)=O)C1 (configuration not stated)
INHIBITION / %: -42.84
//
compound: O=C(NC1CCN(C2CC2)CC1)c1cc(Cl)ccc1-n1cnnn1
INHIBITION / %: 19.04
//
compound: CC(NC(=O)N1CCCCCC1)c1ccc(S(N)(=O)=O)cc1 (configuration not stated)
INHIBITION / %: -36.8
//
compound: COCCN(CC(F)F)c1cc(C(F)(F)F)nc2ncnn12
INHIBITION / %: 25.81
//
compound: CC(=O)N1CCC(NC(=O)c2cc(Cl)ccc2-n2cnnn2)CC1
INHIBITION / %: 53.19
//
compound: CCc1ccc(C(=O)N2CCCC(CNS(C)(=O)=O)C2)o1 (configuration not stated)
INHIBITION / %: -23.94
//
compound: COCc1cc(N(CC(F)F)C2CC2)n2ncnc2n1
INHIBITION / %: 3.59
//
compound: CCC(NC(=O)NCc1nncn1CC)c1ccc(OC)cc1 (configuration not stated)
INHIBITION / %: -53.08
//
compound: CCCN(CC(F)F)c1cc(COC)nc2ncnn12
INHIBITION / %: -6.73
//
compound: COCCN(CC(F)F)c1cc(COC)nc2ncnn12
INHIBITION / %: 69.52
//
compound: CCN(CC)CCN(CC(C)C)c1cc(C(F)(F)F)nc2ncnn12
INHIBITION / %: -13.12
